Documented pEC50 across a set of binders
# system under test: T1, human PD-1 expressed on cells (human, UniProt Q15116 25-288)
# T1 construct: whole, on cells
# T1 sequence (Q15116 25-288): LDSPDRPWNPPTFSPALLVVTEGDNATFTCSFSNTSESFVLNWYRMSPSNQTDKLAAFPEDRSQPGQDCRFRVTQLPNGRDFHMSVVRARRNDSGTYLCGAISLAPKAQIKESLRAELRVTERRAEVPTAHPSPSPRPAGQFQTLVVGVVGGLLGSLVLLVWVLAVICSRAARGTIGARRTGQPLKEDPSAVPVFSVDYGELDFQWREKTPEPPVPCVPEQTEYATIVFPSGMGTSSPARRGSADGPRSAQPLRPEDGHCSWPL
# run description: flow cytometry, hPD1-293 cells
Interpret pEC50 as the negative base-10 log of the concentration measured in mol/L.

Consider the worked cases shown below.
binder	pEC50
m4D1 (antibody, V domains shown, R3A9 derivative) VH: QVQLVQSGAEVKKPGASVKVSCKASGHTFTSYYIHWVRQAPGQGLEWMGIINPSGGSTSYAQKFQGRVTMTRDTSTSTVYMELSSLRSEDTAVYYCARDRAYGGAGDYWGQGTLVTVSS VL: DIQMTQSPSSLSASVGDRVTITCRASQSISAWLAWYQQKPGKAPKLLIYKASSLESGVPSRFSGSGSGTDFTLTISSLQPEDFATYYCQQSYSPPATFGGGTKVEIK	8.83
m2A1 (antibody, V domains shown, R3A9 derivative; also called m2AM (apparent misprint)) VH: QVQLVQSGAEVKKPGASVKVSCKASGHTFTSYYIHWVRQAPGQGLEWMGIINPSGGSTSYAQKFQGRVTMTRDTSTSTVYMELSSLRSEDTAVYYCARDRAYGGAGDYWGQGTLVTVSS VL: DIQMTQSPSSLSASVGDRVTITCRASRGISSWLAWYQQKPGKAPKLLIYAASSLQSGVPSRFSGSGSGTDFTLTISSLQPEDFATYYCQQSYSPPWTFGQGTKVEIK	9.01
m2C1 (antibody, V domains shown, R3A9 derivative; also called m3CM (apparent misprint)) VH: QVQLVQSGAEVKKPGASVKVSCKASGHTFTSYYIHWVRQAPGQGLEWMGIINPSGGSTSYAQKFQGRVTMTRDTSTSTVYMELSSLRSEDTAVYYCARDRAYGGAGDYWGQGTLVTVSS VL: DIQMTQSPSSLSASVGDRVTITCRASRSISSWLAWYQQKPGKAPKLLIYAASSLQSGVPSRFSGSGSGTDFTLTISSLQPEDFATYYCQQSYSIPATFGQGTKVEIK	8.90

Okay, now this binder:
query: Return value of pEC50 for input 38B2 (antibody, V domains shown, 24H9 derivative, IgG; also called 780_54; hPD1 Ab (38B2)) VH: EVQLLESGGGLVQPGGSLRLSCAASGFTFSSYWMSWVRQAPGKGLEWVSAISGSGGSTYYADSVKGRFTISRDNSKNTLYLQMNSLRAEDTAVYYCASSPLQWVDVWGQGTTVTVSS VL: DIQMTQSPSSLSASVGDRVTITCRASESISSWLAWYQQKPGKAPKLLIYDASSLESGVPSRFSGSGSGTDFTLTISSLQPEDFATYYCQQGDSFPFTFGQGTKLEIK , no commentary.
result: 9.57
